Target: Proteasome Macropain subunit MB1 (Homo sapiens, UniProt P28074)
Sequence (P28074 whole entry): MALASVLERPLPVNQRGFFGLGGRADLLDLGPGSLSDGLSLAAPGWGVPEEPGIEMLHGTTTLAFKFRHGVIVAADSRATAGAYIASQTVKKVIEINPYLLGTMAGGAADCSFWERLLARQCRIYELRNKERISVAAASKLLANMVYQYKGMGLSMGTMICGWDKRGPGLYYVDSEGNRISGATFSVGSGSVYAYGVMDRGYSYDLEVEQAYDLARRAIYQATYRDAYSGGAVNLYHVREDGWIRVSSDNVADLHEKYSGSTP
Experiment: Inhibition of human 20S proteosome beta5c subunit using Ac-WLA-AMC as substrate by microplate reader analysis
quantity: IC50 (nM)
Your answer is read as nM, so omit the unit and give the number.

Identify measured IC50 corresponding to C[C@H](NC(=O)[C@H](CC(=O)NCC(C)(C)C)NC(=O)c1c[nH]c2ccccc12)C(=O)NCc1ccc(F)cc1F
2.4

====

Biological target: 20S proteasome
Experiment: Inhibition of human 20S proteasome chymotrypsin-like activity using Suc-LLVY-Glo as a […] substrate measured after 10 mins by luminescence based analysis
quantity: pIC50
Note: pIC50 values are expressed as the negative base-10 logarithm of concentration in M.

C[C@H](NC(=O)[C@H](CC(=O)NCC(C)(C)C)NC(=O)c1c[nH]c2ccccc12)C(=O)NCc1ccc(F)cc1F	6.14

In one line, give reported pIC50 of the entry C[C@H](NC(=O)[C@H](CC(=O)NCC(C)(C)C)NC(=O)c1ccc(/C=C/C(=O)NO)cc1)C(=O)NCc1ccc(F)cc1F .
6.70

====

Tested on: A-375
Experiment: Antiproliferative activity against human A-375 cells assessed as inhibition of cell growth measured after 48 hrs by cell titer-blue cell viability assay
Type: functional, cell-based
Details: A-375, 48 h
quantity: pIC50
For clarity, pIC50 is expressed as the negative log10 of concentration in mol/L.

C[C@H](NC(=O)[C@H](CC(=O)NCC(C)(C)C)NC(=O)c1c[nH]c2ccccc12)C(=O)NCc1ccc(F)cc1F	5.05

Shifting focus to the compound that follows.
Tell me its pIC50 given C[C@H](NC(=O)[C@H](CC(=O)NCC(C)(C)C)NC(=O)c1ccc(/C=C/C(=O)NO)cc1)C(=O)NCc1ccc(F)cc1F as the entry.
5.74

====

# IC50 listing for each entry below
Molecular target: 20S proteasome
Assay: Inhibition of human 20S proteasome chymotrypsin-like activity using Suc-LLVY-Glo as a […] substrate measured after 10 mins by luminescence based analysis

C[C@H](NC(=O)[C@H](CC(=O)NCC(C)(C)C)NC(=O)c1ccc(C(=O)NO)cc1)C(=O)NCc1ccc(F)cc1F	> 30 µM
C[C@H](NC(=O)[C@H](CC(=O)NCC(C)(C)C)NC(=O)CCCCCCC(=O)NO)C(=O)NCc1ccc(F)cc1F	> 30 µM

In the following, a different compound is considered.
Write down the reported IC50 (system: 20S proteasome) of C[C@H](NC(=O)[C@H](CC(=O)NCC(C)(C)C)NC(=O)CCC(=O)Nc1ccc(C(=O)NO)cc1)C(=O)NCc1ccc(F)cc1F
> 30 µM
